Every entry's value here was drawn from patent US4104383A.

ED50 for assorted compounds
Tested on: mouse
Procedure summary: Activity test (spontaneous motility, photoelectric cell cage)
Format: in vivo
Setup conditions: ip, I.P., read-out: Activity, median effective dose

[
  {
    "Compound": "CCN(CC)CC=Cc1ccc(C2CCCCC2)c(Cl)c1 [933 CB]",
    "ED50 (mg/kg)": 25
  },
  {
    "Compound": "Clc1cc(C=CCN2CCOCC2)ccc1C1CCCCC1 [31013 CB]",
    "ED50 (mg/kg)": 50
  },
  {
    "Compound": "CCN(CC)CCCc1ccc(-c2ccccc2)cc1 [31001 CB, 4-(3-diethylamino-propyl)-biphenyl]",
    "ED50 (mg/kg)": 50
  },
  {
    "Compound": "Clc1cc(CCCN2CCCC2)ccc1C1CCCCC1 [31016 CB]",
    "ED50 (mg/kg)": 12.5
  },
  {
    "Compound": "CCN(CC)CCCc1ccc(C2CCCCC2)c(Cl)c1 [934 CB]",
    "ED50 (mg/kg)": 30
  },
  {
    "Compound": "CCN(CC)CC=Cc1ccc(C2CCCCC2)c(F)c1 [Compound 31030]",
    "ED50 (mg/kg)": 100
  },
  {
    "Compound": "Clc1cc(C=CCN2CCCC2)ccc1C1CCCCC1 [31015 CB]",
    "ED50 (mg/kg)": 20
  },
  {
    "Compound": "CCN(CC)CC=Cc1ccc(C2CCCCC2)cc1 [31023 CB]",
    "ED50 (mg/kg)": 25
  },
  {
    "Compound": "CN(C)CC=Cc1ccc(C2CCCCC2)c(Cl)c1 [31004 CB]",
    "ED50 (mg/kg)": 12.5
  },
  {
    "Compound": "CCN(CC)CC=Cc1ccc(-c2ccccc2)cc1 [994 CB, 4-(3-diethylamino-propen-1-yl)-biphenyl]",
    "ED50 (mg/kg)": 100
  },
  {
    "Compound": "CN(C)CCCc1ccc(C2CCCCC2)c(Cl)c1 [31012 CB]",
    "ED50 (mg/kg)": 50
  }
]

###

# LD50 annotations
Procedure summary: Toxicity, LD50 in mice
Setup conditions: mouse, in vivo, ip, I.P., read-out: LD50 I.P.
Source text: The toxicity of the compounds of the invention is generally low, as may be seen from Table IV, which gives the LD50 in mg/kg in mice for some of the compounds of the invention.
Recorded metric: LD50

[
  {
    "Smiles notation": "Clc1cc(C=CCN2CCOCC2)ccc1C1CCCCC1",
    "Endpoint result": "500 mg/kg"
  },
  {
    "Smiles notation": "Clc1cc(CCCN2CCCC2)ccc1C1CCCCC1",
    "Endpoint result": "50 to 100 mg/kg"
  },
  {
    "Smiles notation": "CCN(CC)CC=Cc1ccc(C2CCCCC2)c(Cl)c1",
    "Endpoint result": "125 mg/kg"
  },
  {
    "Smiles notation": "CN(C)CC=Cc1ccc(C2CCCCC2)c(Cl)c1",
    "Endpoint result": "125 mg/kg"
  },
  {
    "Smiles notation": "CCN(CC)CCCc1ccc(C2CCCCC2)c(Cl)c1",
    "Endpoint result": "125 to 250 mg/kg"
  },
  {
    "Smiles notation": "CN(C)CCCc1ccc(C2CCCCC2)c(Cl)c1",
    "Endpoint result": "250 to 300 mg/kg"
  },
  {
    "Smiles notation": "Clc1cc(C=CCN2CCCC2)ccc1C1CCCCC1",
    "Endpoint result": "62.5 mg/kg"
  }
]
